All figures here come from PubChem BioAssay AID504654.

target: HeLa ODD-luciferase turnover, degradation rate luminescence; assay: inhibitors of ODD-luciferase turnover, p97-independent, SAR follow-up, counter-screen for p97 inhibitor project, cell-based, HeLa, luminescence (AID 504654)
Calls of active or inactive are those of the source.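 The calls were made as follows: active = IC50 of at least 20 µM; inactive = IC50 below 20 µM.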
Outcome codes: active, inactive

Structure as smiles | Category label
Fc1cccc(CNc2nc(NCc3ccccc3)c3ccccc3n2)c1 | inactive
Brc1cccc(CNc2nc(NCc3ccccc3)c3ccccc3n2)c1 | inactive
Cc1ccc(CNc2nc(NCc3ccccc3)c3ccccc3n2)cc1 | inactive
COc1cccc2c(NCc3ccccc3)nc(NCc3cccs3)nc12 | inactive
FC(F)(F)c1ccc(CNc2nc(NCc3ccccc3)c3ccccc3n2)cc1 | inactive
c1ccc(CNc2nc(N3CCOc4ccccc43)nc3ccsc23)cc1 | inactive
COc1cccc2c(NCc3ccccc3)nc(-n3c(=O)oc4ccccc43)nc12 | active
COc1cccc2c(NCc3ccccc3)nc(NCc3ccccc3)nc12 | inactive
COc1cccc2c(NCc3ccccc3)nc(Nc3cccc(Cl)c3)nc12 | inactive
COc1cccc2c(NCc3ccccc3)nc(Nc3nc4ccccc4n3C)nc12 | inactive
